- TARGET_DESC: T1, human DLL3 on cells (h293-hDLL3 cells; endogenous DLL3 on NTX tumor cells) (human, UniProt Q9NYJ7 27-618)
- T1 sequence: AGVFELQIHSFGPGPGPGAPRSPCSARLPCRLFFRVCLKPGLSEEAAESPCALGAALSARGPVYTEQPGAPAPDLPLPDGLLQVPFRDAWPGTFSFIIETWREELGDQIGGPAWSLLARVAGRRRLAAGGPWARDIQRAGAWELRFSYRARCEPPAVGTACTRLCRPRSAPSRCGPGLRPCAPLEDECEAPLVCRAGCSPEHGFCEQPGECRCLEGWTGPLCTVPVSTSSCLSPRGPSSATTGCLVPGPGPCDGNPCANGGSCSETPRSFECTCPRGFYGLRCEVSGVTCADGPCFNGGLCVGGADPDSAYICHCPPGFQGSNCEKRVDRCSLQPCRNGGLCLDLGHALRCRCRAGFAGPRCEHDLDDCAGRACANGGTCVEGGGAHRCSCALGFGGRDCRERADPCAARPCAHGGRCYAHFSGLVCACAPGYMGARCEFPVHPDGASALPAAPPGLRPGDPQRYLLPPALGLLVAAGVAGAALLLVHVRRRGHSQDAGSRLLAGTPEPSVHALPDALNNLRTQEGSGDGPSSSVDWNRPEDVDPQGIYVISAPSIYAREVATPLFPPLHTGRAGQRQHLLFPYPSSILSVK
- PROTOCOL_NOTES: cell-based or functional assay
READOUT: % Live Cells (in vitro), KDY66 cells, antibody plus anti-mouse IgG Fab-saporin
Hey, just the number and the unit after it is fine.

Inquiry: Give % Live Cells (in vitro), KDY66 cells, antibody plus anti-mouse IgG Fab-saporin for SC16.13 (antibody, V domains shown) VH: QVTLKESGPGILQPSQTLSLTCSFSGFSLSTSGMGVGWIRQPSGKGLEWLAHIWWDDVKRYNPALKSRLTISKDTSSSQVFLKIASVDTADTATYYCARIVSFDNDVVSAMDYWGQGTSVTVSS VL: QIVLTQSPALVSASPGEKVTMTCSASSSVSYMYWYQQKPRSSPKPWIYLTSNLASGVPARFSGSGSGTSYSLTISSMEAEDAATYYCQQWRSNPFTFGSGTKLEIK
Reply text: 31%
